Tested on: T-47D breast
MEASUREMENT_DESCRIPTION: NCI tumour cell line growth inhibition, 48 h; in the data active means GI50 below about 0.43 µM; inactive means the rest
Your answer must be one of the following: active, inactive

These solved cases illustrate the format of a correct answer.
| COMPOUND | CLASS |
| --- | --- |
| COc1ccc(-c2nc(/C=N/Nc3cc(C)nc4ccc(Cl)cc34)c(C)o2)cc1 | inactive |
| COC1/C=C/C(C)C(C(C)C(OC)C(C)CCC(=O)C(C)C(C/C=C/N(C)C=O)OC)OC(=O)/C=C/C=C(\C)CC(OC)CC2=CC(=O)O[C@H](C2)C(C)C(OC)CC(OC)/C=C/C(C)C(OC)C1 (some centres undefined) | active |
| N#CCCN(CCCN(CCCN(C(=O)Nc1ccccc1)c1ccccc1)C(=O)Nc1ccccc1)C(=O)Nc1ccccc1 | inactive |
| Cc1ccc(C(CC(=O)c2ccccc2)C2C(=O)NC(=O)NC2=O)cc1 (centres undefined) | inactive |
| COc1cc(Nc2c(C#N)cnc3cc(OCCCN4CCN(C)CC4)c(OC)cc23)c(Cl)cc1Cl | inactive |

[ask] Which outcome was entered for the compound O=C(Nc1cccc(-n2cc(-c3ccncc3)c(-c3cc(O)cc(Cl)c3)n2)c1)Nc1ccc(Cl)c(C(F)(F)F)c1 in this test?
[reply] inactive

[ask] Which outcome was entered for the compound COc1ccc(/C=C/C(=O)c2ccc(O)c(CN3CCN(c4cc5c(cc4F)c(=O)c(C(=O)O)cn5C4CC4)CC3)c2)cc1 in this test?
[reply] inactive

[ask] Which outcome was entered for the compound C[C@]12CCc3sc(NCCc4ccccc4)nc3C1=CC[C@@H]1[C@@H]2CC[C@]2(C)C(=O)CC[C@@H]12 in this test?
[reply] inactive

---

Listed here are compounds together with their documented GI50.
System: EKVX NSCLC
MEASUREMENT_DESCRIPTION: NCI tumour cell line growth inhibition, 48 h

[ask] Dear colleague, I am looking for the recorded GI50 of the following compound: COC1/C=C/C(C)C(C(C)C(OC)C(C)CCC(=O)C(C)C(C/C=C/N(C)C=O)OC)OC(=O)/C=C/C=C(\C)CC(OC)CC2=CC(=O)O[C@H](C2)C(C)C(OC)CC(OC)/C=C/C(C)C(OC)C1 (stereo partly drawn)
[reply] 0.123 µM

[ask] Dear colleague, I am looking for the recorded GI50 of the following compound: COc1cccc2c1C(=O)c1c(O)c3c(c(O)c1C2=O)CC(O)(C(O)CO)CC3OC1CC(N2CCOCC2)C(O)C(C)O1 (stereo not drawn)
[reply] 0.0304 µM

[ask] Dear colleague, I am looking for the recorded GI50 of the following compound: O=C(Cn1c(=O)c(-c2ccccc2)nc2ccccc21)Nc1ccc(F)cc1
[reply] 87.1 µM

[ask] Dear colleague, I am looking for the recorded GI50 of the following compound: O=C1c2cccc(NCCN=Cc3cc([N+](=O)[O-])ccc3O)c2C(=O)c2c(NCCN=Cc3cc([N+](=O)[O-])ccc3O)cccc21
[reply] 16.1 µM

[ask] Dear colleague, I am looking for the recorded GI50 of the following compound: Cc1cc(O)c(C2=NN(c3ccc(S(N)(=O)=O)cc3)C(c3ccccc3Cl)C2)cc1Cl (stereo not drawn)
[reply] 1.95 µM

[ask] Dear colleague, I am looking for the recorded GI50 of the following compound: CCC1CN2C(=N1)c1ccccc1-c1cc(Cl)ccc12 (stereo not drawn)
[reply] 4.74 µM

[ask] Dear colleague, I am looking for the recorded GI50 of the following compound: O=c1ccn(C2CC(O)C(CO)O2)c(=O)[nH]1 (stereo not drawn)
[reply] > 5000 µM

[ask] Dear colleague, I am looking for the recorded GI50 of the following compound: COc1ccc(-c2nc(/C=N/Nc3cc(C)nc4ccc(Cl)cc34)c(C)o2)cc1
[reply] 1.82 µM

Taken from PubChem BioAssay (NCI).
